Data provenance: PubChem BioAssay AID589

assay: qHTS Assay for Spectroscopic Profiling in 4-MU Spectral Region; settings: compound autofluorescence, 340/450 nm, 4-MU equivalents
Screen size: about 59,000 compounds; about 6,200 (11%) were called active. Not shown: some 9% with an inconclusive outcome. Rule as the data show it: active = max dye-equivalent concentration above about 10 nM; inconclusive = mostly about 1.1 nM to 9.6 nM; inactive = weaker than that. The sample holds actives, similar compounds and a random draw of the others, so the mix is not that of the screen.
Please state which outcome applies, choosing from active, inactive

[[record]]
compound = "COCCCNC(=O)C1CC(=O)N(c2ccc(C)cc2)C1 (stereo unspecified)"
class = "inactive"

[[record]]
compound = "O=c1[nH]nc(Cc2ccccn2)c2ccccc12"
class = "inactive"

[[record]]
compound = "CCOC(=O)CCc1c(C)c(C#N)c2[nH]c3ccccc3n2c1=O"
class = "active"


For CCc1cc(=O)oc2cc(C)cc(OC(C)C(=O)O)c12 (stereo unspecified) , what call appears in the results of this test?
active

For `CC(C)(C)NC(=O)NC(=O)COC(=O)Cn1c(C(F)(F)F)nc2ccccc21` , what call appears in the results of this test?
inactive

###

experiment: qHTS Assay for Spectroscopic Profiling in 4-MU Spectral Region; conditions: compound autofluorescence, 340/450 nm, 4-MU equivalents
Among all 59,000 compounds or so, about 6,200 (11%) were called active. Inconclusive results (about 9%) are left out. No stated cut-off is given here; in the data, active means max dye-equivalent concentration above about 10 nM; inconclusive means mostly about 1.1 nM to 9.6 nM; inactive means weaker than that. Shown is part of a subset that was picked to be rich in actives.
Please state which outcome applies, choosing from active, inactive

Check out these entries, answers already filled in.
[[record]]
compound = "CCCS(=O)(=O)N1CCN(C(=O)c2cccs2)CC1"
class = "inactive"

[[record]]
compound = "Cc1nc(NC(=O)C23CCC(C)(C(=O)O2)C3(C)C)sc1C (stereo unspecified)"
class = "inactive"


For `CC(=O)Cc1nsc(NC(=O)c2ccc(COc3ccc(C)cc3)o2)n1` , what call appears in the results of this test?
inactive

For CC(Nc1nc(N2CCCC2)nc2ccccc12)c1ccccc1 (stereo unspecified) , what call appears in the results of this test?
active

For `CC(C)NC(=O)N1CC[C@@]2(CCCN(C(=O)c3cccn3C)C2)C1` , what call appears in the results of this test?
inactive

For `Cc1ccc(Cc2nc(-c3cccc(C)c3)no2)cc1` , what call appears in the results of this test?
inactive

For `O=C(c1cccc(F)c1)N1CCC2(CCCN(Cc3ccncc3)C2)CC1` , what call appears in the results of this test?
inactive

For `COc1ccc(OCC(=O)N2CCN(C(=O)c3cccs3)CC2)cc1` , what call appears in the results of this test?
inactive

For `Cc1ccc(NC(=O)CCNS(=O)(=O)c2ccc3c(c2)oc(=O)n3C)cc1C` , what call appears in the results of this test?
inactive

For `C=CCn1c(COc2ccccc2)nnc1SCC(=O)NCC(=O)OCC` , what call appears in the results of this test?
inactive

For `Cc1ccc(-c2noc(CN3CCN(Cc4ccccc4)CC3)n2)cc1` , what call appears in the results of this test?
inactive

###

assay: qHTS Assay for Spectroscopic Profiling in 4-MU Spectral Region; conditions: compound autofluorescence, 340/450 nm, 4-MU equivalents
Screen size: about 59,000 compounds; about 6,200 (11%) were called active. About 9% were inconclusive and are not listed. Cut-off read from the data, not from the text of the source: active = max dye-equivalent concentration above about 10 nM; inconclusive = mostly about 1.1 nM to 9.6 nM; inactive = weaker than that. The sample holds actives, similar compounds and a random draw of the others, so the mix is not that of the screen.
Please state which outcome applies, choosing from true (1) (active), false (0) (inactive)

Check out these entries, answers already filled in.
[[record]]
compound = "COc1cccc(N(CC(=O)Nc2cccc(N(C)S(C)(=O)=O)c2)S(C)(=O)=O)c1"
class = "false (0)"

[[record]]
compound = "COc1ccc2oc(=O)c(C(=O)N3CCN(c4ccccc4F)CC3)cc2c1"
class = "true (1)"

[[record]]
compound = "O/N=C1\\CC2(Cc3nonc31)OCCO2"
class = "false (0)"


For `CCOC(=O)c1ccc(COC(=O)c2cc(=O)[nH]c3ccccc23)o1` , what call appears in the results of this test?
true (1)

For CCOC(=O)c1ccc(CS(=O)c2ccc(Cl)cc2)o1 (stereo not drawn) , what call appears in the results of this test?
false (0)

For `CC(=O)O[C@]1(C(C)=O)CC[C@@H]2[C@@H]3C=C(C)C4=CC(=O)CC[C@@]4(C)[C@H]3CC[C@]21C` , what call appears in the results of this test?
false (0)

For `N#Cc1c(N)sc2c1CCN(C(=O)OCc1ccccc1)C2` , what call appears in the results of this test?
false (0)

For `CCOC(=O)N1CCN(C(=O)c2cc3c(ccc4ccccc43)oc2=O)CC1` , what call appears in the results of this test?
true (1)

For `COCCNc1ncnc2ccc(-c3cccnc3)cc12` , what call appears in the results of this test?
false (0)

For `Cc1ccc(C(=O)NCC(=O)O)cc1S(=O)(=O)N1CCCCC1` , what call appears in the results of this test?
false (0)

For `CCOC(=O)CSc1nnc(NC(=O)c2cccc(S(=O)(=O)N3CCCC3)c2)s1` , what call appears in the results of this test?
false (0)

###

assay: qHTS Assay for Spectroscopic Profiling in 4-MU Spectral Region; settings: compound autofluorescence, 340/450 nm, 4-MU equivalents
Out of some 59,000 compounds screened, about 6,200 (11%) were called active. Inconclusive results (about 9%) are left out. Rule as the data show it: active = max dye-equivalent concentration above about 10 nM; inconclusive = mostly about 1.1 nM to 9.6 nM; inactive = weaker than that. The sample holds actives, similar compounds and a random draw of the others, so the mix is not that of the screen.
Please state which outcome applies, choosing from yes (1) = active, no (0) = inactive

[[record]]
compound = "O=C(CSc1nc(-c2ccco2)cc(C(F)(F)F)n1)NCc1cccs1"
class = "no (0)"

[[record]]
compound = "Cc1cc(C)c2c(n1)nn1c(-n3ccnc3)cc(C)nc21"
class = "yes (1)"

[[record]]
compound = "Cc1cc(C)c2c(n1)nn1c(N3CCN(c4cccc(Cl)c4)CC3)cc(C)nc21"
class = "yes (1)"


For `CCOc1ccccc1NC(=O)CCN1CCN(S(=O)(=O)c2ccc(OC)cc2)CC1` , what call appears in the results of this test?
no (0)

For `COc1ccccc1CNc1ncnc2ccc(-c3c(C)noc3C)cc12` , what call appears in the results of this test?
no (0)

For `CCC(=O)N(Cc1cc2cc(OC)ccc2[nH]c1=O)c1ccccc1C` , what call appears in the results of this test?
yes (1)

For `c1ccc(-c2cc(-c3nnc4sc(-c5ccccn5)nn34)[nH]n2)cc1` , what call appears in the results of this test?
no (0)

For `CS(=O)(=O)N(CC(=O)N1CCN(c2cccc(Cl)c2)CC1)c1ccccc1` , what call appears in the results of this test?
no (0)

For `CCOc1cccc(-c2nn3c(-c4ccccn4)nnc3s2)c1` , what call appears in the results of this test?
no (0)

For `FC(F)(F)c1cc(-c2cccs2)nc(NCc2ccco2)n1` , what call appears in the results of this test?
yes (1)

For `Cc1cnc(CNc2cc(-c3c(C)noc3C)ncn2)cn1` , what call appears in the results of this test?
yes (1)

For `O=C(OCc1cc2ccccc2[nH]c1=O)c1cccnc1` , what call appears in the results of this test?
no (0)

For `CCOc1cc(C)c(Cl)cc1S(=O)(=O)n1nnc2ccccc21` , what call appears in the results of this test?
no (0)

###

assay: qHTS Assay for Spectroscopic Profiling in 4-MU Spectral Region; details: compound autofluorescence, 340/450 nm, 4-MU equivalents
About 6,200 (11%) of roughly 59,000 compounds were called active. About 9% were inconclusive and are not listed. Cut-off read from the data, not from the text of the source: active = max dye-equivalent concentration above about 10 nM; inconclusive = mostly about 1.1 nM to 9.6 nM; inactive = weaker than that. This is one part of a sample in which actives are shown more often than they occur.
Please state which outcome applies, choosing from class 1 for active, class 0 for inactive

For `CCOC(=O)C1CCN(C(=O)C2CCN(S(=O)(=O)CC)CC2)CC1` , what call appears in the results of this test?
class 0

For `CN(c1nc2ccccc2n2c(-c3ccco3)nnc12)S(=O)(=O)c1ccccc1` , what call appears in the results of this test?
class 1

For `c1ccc(-n2ncc3c(N4CCCC4)ncnc32)cc1` , what call appears in the results of this test?
class 0

For `COc1cc(NC(=O)N2CCOCC2)cc(OC)c1` , what call appears in the results of this test?
class 0

For `CCOC(=O)c1[nH]c2ccc(OC)cc2c1NC(=O)N1CCOCC1` , what call appears in the results of this test?
class 1

For `CCOc1ccc(-c2nnc3ccc(SC)nn23)cc1` , what call appears in the results of this test?
class 1

###

test: qHTS Assay for Spectroscopic Profiling in 4-MU Spectral Region; conditions: compound autofluorescence, 340/450 nm, 4-MU equivalents
Hit rate of the full screen: of about 59,000 compounds, about 6,200 (11%) were called active. Not shown: some 9% with an inconclusive outcome. Cut-off read from the data, not from the text of the source: active = max dye-equivalent concentration above about 10 nM; inconclusive = mostly about 1.1 nM to 9.6 nM; inactive = weaker than that. The sample holds actives, similar compounds and a random draw of the others, so the mix is not that of the screen.
Please state which outcome applies, choosing from active, inactive

Check out these entries, answers already filled in.
[[record]]
chemical_smiles = "O=S(=O)(O)c1nc2ccccc2n1Cc1ccc(Cl)cc1"
class = "inactive"

[[record]]
chemical_smiles = "COc1ccccc1CNC(=O)CCCn1c(=O)c2ccccc2n(CC(=O)NC2CCCC2)c1=O"
class = "inactive"

[[record]]
chemical_smiles = "CCc1cc2c(=O)c(-c3ccon3)c(N)oc2cc1OC"
class = "inactive"

[[record]]
chemical_smiles = "Cc1ccc(Cc2cncc(O)c2)cc1S(=O)(=O)O"
class = "inactive"


For `CCOc1cc(C2C(C(=O)OC)=CN(C3CCCC3)C=C2C(=O)OC)cc(Br)c1O` , what call appears in the results of this test?
active

For `N#Cc1c(N)n(CCOC(=O)c2ccc(Cl)cc2)c2nc3ccccc3nc12` , what call appears in the results of this test?
active
